molecular target: AR (cytosol from LnCaP cells) (Homo sapiens, UniProt P10275, T878A); test: AR binding assay (3H-R1881 displacement)
Sequence (P10275 whole entry T878A): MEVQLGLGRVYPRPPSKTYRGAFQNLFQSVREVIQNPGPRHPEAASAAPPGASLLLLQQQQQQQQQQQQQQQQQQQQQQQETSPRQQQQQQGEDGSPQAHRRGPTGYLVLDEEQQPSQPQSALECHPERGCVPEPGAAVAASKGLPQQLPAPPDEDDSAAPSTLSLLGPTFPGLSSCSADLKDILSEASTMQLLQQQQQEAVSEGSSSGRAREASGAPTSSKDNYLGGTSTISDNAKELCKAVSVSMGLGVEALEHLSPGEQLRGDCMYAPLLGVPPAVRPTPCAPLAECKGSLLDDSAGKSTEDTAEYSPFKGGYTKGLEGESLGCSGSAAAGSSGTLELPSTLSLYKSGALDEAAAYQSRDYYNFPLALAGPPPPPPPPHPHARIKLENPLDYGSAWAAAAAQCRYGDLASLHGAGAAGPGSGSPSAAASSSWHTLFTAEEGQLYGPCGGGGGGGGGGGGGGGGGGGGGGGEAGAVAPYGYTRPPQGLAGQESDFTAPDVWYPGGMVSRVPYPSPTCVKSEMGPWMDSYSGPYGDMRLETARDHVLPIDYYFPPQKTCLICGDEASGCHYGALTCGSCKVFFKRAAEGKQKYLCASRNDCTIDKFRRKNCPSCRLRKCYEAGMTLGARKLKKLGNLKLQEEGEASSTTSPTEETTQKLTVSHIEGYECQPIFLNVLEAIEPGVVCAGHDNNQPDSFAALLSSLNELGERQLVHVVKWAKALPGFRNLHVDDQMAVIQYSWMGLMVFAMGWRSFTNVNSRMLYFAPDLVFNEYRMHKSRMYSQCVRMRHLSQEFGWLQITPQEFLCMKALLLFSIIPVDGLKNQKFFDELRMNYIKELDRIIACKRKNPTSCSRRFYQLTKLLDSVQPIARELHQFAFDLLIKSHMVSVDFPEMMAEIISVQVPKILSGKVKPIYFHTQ
parameter.measured: IC50

Some solved cases for reference:
CC[C@@]1(O)C(=O)OCc2c1cc1n(c2=O)Cc2cc3c(CN(C)C)c(OCC4CCN(C(=O)C5CCN(c6ccc(C(=O)N[C@H]7CC[C@H](Oc8ccc(C#N)c(Cl)c8)CC7)nn6)CC5)CC4)ccc3nc2-1 : 10 to 100 nM
CC[C@@]1(O)C(=O)OCc2c1cc1n(c2=O)Cc2cc3c(CN(C)C)c(OC(=O)N4C5CC4CN(CCCCCCN(C)c4ccc([C@H]6C[C@@]7(C)[C@@H](CC[C@]7(OC(C)=O)C(C)=O)[C@@H]7CCC8=CC(=O)CCC8=C76)cc4)C5)ccc3nc2-1 : 10 to 100 nM
CC[C@@]1(O)C(=O)OCc2c1cc1n(c2=O)Cc2cc3c(CN4CCN(C(=O)C5CCN(c6ccc(C(=O)N[C@H]7CC[C@H](Oc8ccc(C#N)c(Cl)c8C)CC7)nn6)CC5)CC4)c(O)ccc3nc2-1 : < 10 nM
CC[C@@]1(O)C(=O)OCc2c1cc1n(c2=O)Cc2cc3c(CN4CCN(C(=O)CCCCCC5CCN(c6ccc(C(=O)N[C@H]7CC[C@H](N(C)c8ccc(C#N)c(Cl)c8)CC7)nn6)CC5)CC4)c(O)ccc3nc2-1 : 10 to 100 nM
CC[C@@]1(O)C(=O)OCc2c1cc1n(c2=O)Cc2cc3c(CN4CCN(C(=O)C5CCN(c6ccc(C(=O)N[C@H]7CC[C@H](Oc8ccc(C#N)c(Cl)c8C)CC7)nn6)CC5)CC4)c(OC(=O)N4C[C@H](C)N(C)C[C@H]4C)ccc3nc2-1 : < 10 nM
CC[C@@]1(O)C(=O)OCc2c1cc1n(c2=O)Cc2cc3c(CN4CCN(C(=O)OCCCCN(C)c5ccc([C@H]6C[C@@]7(C)[C@@H](CC[C@]7(OC(C)=O)C(C)=O)[C@@H]7CCC8=CC(=O)CCC8=C76)cc5)CC4)c(O)ccc3nc2-1 : 10 to 100 nM
CC[C@@]1(O)C(=O)OCc2c1cc1n(c2=O)Cc2cc3c(CN4CCN(CCCCCCC5CCN(c6ccc(C(=O)N[C@H]7CC[C@H](N(C)c8ccc(C#N)c(Cl)c8)CC7)nn6)CC5)CC4)c(O)ccc3nc2-1 : 101 to 1000 nM
CC[C@@]1(O)C(=O)OCc2c1cc1n(c2=O)Cc2cc3c(CN4CCN(C(=O)C5CCN(c6ccc(C(=O)N[C@H]7CC[C@H](Oc8ccc(C#N)c(Cl)c8)CC7)nn6)CC5)CC4)c(OC(=O)N4CCN(C)CC4)ccc3nc2-1 : 10 to 100 nM

Record IC50 for all entries; do not skip any.
1. CC[C@@]1(O)C(=O)OCc2c1cc1n(c2=O)Cc2cc3c(CN(C)C)c(OC(=O)N4C[C@H](C)N(C(=O)C5CCN(c6ccc(C(=O)N[C@H]7CC[C@H](Oc8ccc(C#N)c(Cl)c8C)CC7)nn6)CC5)C[C@H]4C)ccc3nc2-1
2. CC[C@@]1(O)C(=O)OCc2c1cc1n(c2=O)Cc2cc3c(CN(C)C)c(OC(=O)N4CCN(CCCCCCCN(C)c5ccc([C@H]6C[C@@]7(C)[C@@H](CC[C@]7(OC(C)=O)C(C)=O)[C@@H]7CCC8=CC(=O)CCC8=C76)cc5)CC4)ccc3nc2-1
3. CC[C@@]1(OC(=O)N2CCN(CC3CCN(c4ccc(C(=O)N[C@H]5CC[C@H](Oc6ccc(C#N)c(Cl)c6C)CC5)nn4)CC3)CC2)C(=O)OCc2c1cc1n(c2=O)Cc2cc3cc(OC)ccc3nc2-1
4. CC[C@@]1(O)C(=O)OCc2c1cc1n(c2=O)Cc2cc3c(CN(C)C)c(OC(=O)N4CCN(CCCCCCNc5ccc([C@H]6C[C@@]7(C)[C@@H](CC[C@]7(OC(C)=O)C(C)=O)[C@@H]7CCC8=CC(=O)CCC8=C76)cc5)CC4)ccc3nc2-1

1. < 10 nM
2. 10 to 100 nM
3. 10 to 100 nM
4. 10 to 100 nM

Numbers sourced from patent US20260102501A1.
